Could you please report measured cell viability for the items listed next?
system: SEM cells; test: cell viability relative to DMSO control; higher = less cytotoxic; conditions: RPMI 5 mM glucose + 10% dialyzed FBS; 48 h; 1.71 µM
Provide the reading as a plain figure in %.

Task: Need cell viability of COc1ccc(C2Sc3ccccc3N(CCN(C)C)C(=O)C2OC(C)=O)cc1 (stereo not drawn) , thanks.
Result: 109

Task: Need cell viability of `CNC[C@H](O)c1cccc(O)c1` , thanks.
Result: 110

Task: Need cell viability of CN1c2ccccc2C(=O)N2CCc3c([nH]c4ccccc34)C21 (stereo not drawn) , thanks.
Result: 109

Task: Need cell viability of `CN(C)CCN(C)C(=O)c1ccc(NC(=O)Nc2ccc(-c3nc(N4CCOCC4)c4ccn(CC(F)(F)F)c4n3)cc2)cc1` , thanks.
Result: 60.1

Task: Need cell viability of `CC(=O)OCCN1C(=O)c2c(C)nc3ccc([S+](=O)([O-])N4CCOCC4)cc3c2C1=O` , thanks.
Result: 140

Task: Need cell viability of `CNCc1ccc(-c2[nH]c3cc(F)cc4c3c2CCNC4=O)cc1` , thanks.
Result: 136

Task: Need cell viability of `COC1=C2C[C@@H](C)C[C@H](OC)[C@H](O)[C@@H](C)/C=C(\C)[C@H](OC(N)=O)[C@@H](OC)/C=C/C=C(\C)C(=O)NC(=CC1=O)C2=O` , thanks.
Result: 114

Task: Need cell viability of `CC(C)c1ccc(Cn2ccc3c4c(N)nc(NC5CC5)nc4ccc32)cc1` , thanks.
Result: 119

###

Could you please report measured cell viability for the items listed next?
test system: SEM cells; test: cell viability relative to DMSO control; higher = less cytotoxic; conditions: HPLM + 10% dialyzed FBS; 48 h; 0.00702 µM
Provide the reading as a plain figure in %.

Task: Need cell viability of `CN1\C(=C(\O)C2=C(C=CC=C2)[S+]1([O-])=O)C(=O)NC3=CC=CC=N3` , thanks.
Result: 96.9

Task: Need cell viability of `O=C\1N(N\C=C1[N]2C=CN=N2)C3=NC=NC(=C3)N4CCOCC4` , thanks.
Result: 66.2

Task: Need cell viability of COc1ccc(C2Sc3ccccc3N(CCN(C)C)C(=O)C2OC(C)=O)cc1 (configuration not stated) , thanks.
Result: 106

Task: Need cell viability of `COc1cc2nc(-c3cc(F)ccc3O)nc(N[C@@H]3CNC[C@H]3C(C)(C)O)c2cc1OC` , thanks.
Result: 90.5

Task: Need cell viability of `CNC[C@H](O)c1cccc(O)c1` , thanks.
Result: 98.8

Task: Need cell viability of `CC[C@H](C)C(=O)O[C@H]1C[C@H](O)\C=C2\C=C/[C@H](C)[C@H](CC[C@@H](O)C[C@@H](O)CC(O)=O)[C@@H]12` , thanks.
Result: 116

Task: Need cell viability of `CCN(C(=O)C/1=C(O)/C2=C(C=CC=C2Cl)N(C)C1=O)C3=CC=CC=C3` , thanks.
Result: 99.3

###

test system: P12-Ichikawa; assay: cell viability relative to DMSO control; higher = less cytotoxic; settings: RPMI 5 mM glucose + 10% FBS; 48 h; 5.12 µM
resultType: cell viability (%)
Provide the reading as a plain figure in %.

Task: Need cell viability of `CN(C)CCOc1ccc(-c2nc(-c3ccncc3)c(-c3ccc4c(c3)CC/C4=N\O)[nH]2)cc1` , thanks.
Result: 94.5

Task: Need cell viability of `C[C@]12CC[C@@H]3c4ccc(O)cc4CC[C@H]3[C@@H]1C[C@@H](O)[C@@H]2O` , thanks.
Result: 123

Task: Need cell viability of COc1ccc(C2Sc3ccccc3N(CCN(C)C)C(=O)C2OC(C)=O)cc1 (stereo unspecified) , thanks.
Result: 99.8

Task: Need cell viability of `CCCCCCCCCC(=O)N[C@@H](Cc1c[nH]c2ccccc12)C(=O)N[C@H](CC(N)=O)C(=O)N[C@@H](CC(=O)O)C(=O)N[C@@H]1C(=O)NCC(=O)N[C@@H](CCCN)C(=O)N[C@@H](CC(=O)O)C(=O)N[C@H](C)C(=O)N[C@@H](CC(=O)O)C(=O)NCC(=O)N[C@H](CO)C(=O)N[C@@H]([C@@H](C)CC(=O)O)C(=O)N[C@@H](CC(=O)c2ccccc2N)C(=O)O[C@@H]1C` , thanks.
Result: 125

Task: Need cell viability of `C/C(O)=C(\C#N)C(=O)Nc1cc(Br)ccc1Br` , thanks.
Result: 104

Task: Need cell viability of `CN1\N=C(N)/C2=C[N]([C@@H]3O[C@H](CO[P](O)(O)=O)[C@@H](O)[C@H]3O)C4=C2C1=NC=N4` , thanks.
Result: 52.7

###

tested on: NOMO1; assay: cell viability relative to DMSO control; higher = less cytotoxic; settings: RPMI 5 mM glucose + 10% dialyzed FBS; 48 h; 5.12 µM
resultType: cell viability (%)
Provide the reading as a plain figure in %.

Task: Need cell viability of `COC[C@H](c1ccc(C(F)(F)F)cc1)N1CCN(C2(C)CCN(C(=O)c3c(C)ncnc3C)CC2)C[C@H]1C.O=C(O)/C=C\C(=O)O` , thanks.
Result: 75

Task: Need cell viability of `COC1=C2C[C@@H](C)C[C@H](OC)[C@H](O)[C@@H](C)/C=C(\C)[C@H](OC(N)=O)[C@@H](OC)/C=C/C=C(\C)C(=O)NC(=CC1=O)C2=O` , thanks.
Result: 123

Task: Need cell viability of `COc1cccc([C@@H](C)NCCCc2ccccc2Cl)c1` , thanks.
Result: 111

Task: Need cell viability of `CN(C)c1nc(Cc2ccc(NC(=O)c3ccc4ccccc4c3)cc2)nc(Cl)c1CC(=O)O` , thanks.
Result: 63.1

Task: Need cell viability of `CN[C@@H](C)C(=O)N[C@H]1CN(C(=O)CC(C)C)CC[C@H]2CC[C@@H](C(=O)NC(c3ccccc3)c3ccccc3)N2C1=O` , thanks.
Result: 17.7

Task: Need cell viability of `Oc1cccc(-c2nc(N3CCOCC3)c3oc4ncccc4c3n2)c1` , thanks.
Result: 109

Task: Need cell viability of `COc1cc2nc(-c3cc(F)ccc3O)nc(N[C@@H]3CNC[C@H]3C(C)(C)O)c2cc1OC` , thanks.
Result: 99.6

Task: Need cell viability of `O=C\1N(N\C=C1[N]2C=CN=N2)C3=NC=NC(=C3)N4CCOCC4` , thanks.
Result: 18.6

Task: Need cell viability of `CN(C)CCOc1ccc(-c2nc(-c3ccncc3)c(-c3ccc4c(c3)CC/C4=N\O)[nH]2)cc1` , thanks.
Result: 85.5

Task: Need cell viability of `O=C(O)/C=C/c1ccc(O)c(O)c1` , thanks.
Result: 101

Task: Need cell viability of `C[S+](=O)([O-])c1cccc(CNc2nc(Nc3ccc4c(c3)CCC(=O)N4)ncc2C(F)(F)F)c1` , thanks.
Result: 108

Task: Need cell viability of `O=C(Cc1ccc(-c2ccc(OCCN3CCOCC3)cc2)cn1)NCc1ccccc1` , thanks.
Result: 40.6

Task: Need cell viability of `O=C1Nc2ccc(I)cc2/C1=C/c1cc(Br)c(O)c(Br)c1` , thanks.
Result: 101

Task: Need cell viability of `CC(C)C[C@H](NC(=O)CNC(=O)c1cc(Cl)ccc1Cl)B(O)O` , thanks.
Result: 5.16

Task: Need cell viability of `Cc1cc(Nc2nc(N[C@@H](C)c3ccc(F)cc3)c(C#N)cc2F)n[nH]1` , thanks.
Result: 28.3

Task: Need cell viability of COc1ccc(C2Sc3ccccc3N(CCN(C)C)C(=O)C2OC(C)=O)cc1 (centres undefined) , thanks.
Result: 100

Task: Need cell viability of `NC(=O)c1cccc2cn(-c3ccc([C@@H]4CCCNC4)cc3)nc12` , thanks.
Result: 110

Task: Need cell viability of `CCC(=C/[C@H](C)C/C=C/C(C)=C/[C@@H](C)C(=O)[C@@H](C)[C@H](O)[C@@H](C)C/C(C)=C/C(=O)O)/C=C/[C@@H]1OC(=O)C=C[C@@H]1C` , thanks.
Result: 3.22

Task: Need cell viability of `CC(C)c1ccc(Cn2ccc3c4c(N)nc(NC5CC5)nc4ccc32)cc1` , thanks.
Result: 50.3

###

test system: SEM cells; test: cell viability relative to DMSO control; higher = less cytotoxic; conditions: RPMI 5 mM glucose + 10% dialyzed FBS; 48 h; 0.00234 µM
Could you please report measured cell viability for the items listed next?
Provide the reading as a plain figure in %.

Task: Need cell viability of `ClC1=CC\2=C(NC(=O)\C(=C2N[C@@H]3CN4CCC3CC4)C5=NC6=C([NH]5)C=CC=C6)C=C1` , thanks.
Result: 108

Task: Need cell viability of `CN(C)CCN(C)C(=O)c1ccc(NC(=O)Nc2ccc(-c3nc(N4CCOCC4)c4ccn(CC(F)(F)F)c4n3)cc2)cc1` , thanks.
Result: 110

Task: Need cell viability of `CCC(=C/[C@H](C)C/C=C/C(C)=C/[C@@H](C)C(=O)[C@@H](C)[C@H](O)[C@@H](C)C/C(C)=C/C(=O)O)/C=C/[C@@H]1OC(=O)C=C[C@@H]1C` , thanks.
Result: 86

Task: Need cell viability of `C[C@]12CC[C@H]3[C@@H](CCC/4=C/C(=O)CC[C@]34C)[C@@H]1CC[C@@H]2O` , thanks.
Result: 113

Task: Need cell viability of `c1ccc(CNc2nc(N3CCOc4ccccc43)nc3c2CCCC3)cc1` , thanks.
Result: 91.3

Task: Need cell viability of `COC1=CC=CC(=C1N)\C2=C\C(=O)C3=C(O2)C=CC=C3` , thanks.
Result: 111

Task: Need cell viability of `CCN(CC)CCCCNc1ncc2c(n1)N(C)C(=O)N(c1c(Cl)c(OC)cc(OC)c1Cl)C2` , thanks.
Result: 118

Task: Need cell viability of CC/1=C(/C(CC(=O)N1)C2=CC=C(C=C2)C(F)(F)F)C(=O)NC3=C(F)C=C4[NH]N=CC4=C3 (stereo not given) , thanks.
Result: 80.9

Task: Need cell viability of `COc1cc2nc(-c3cc(F)ccc3O)nc(N[C@@H]3CNC[C@H]3C(C)(C)O)c2cc1OC` , thanks.
Result: 94.4

Task: Need cell viability of `CCCCCCCCCC(=O)N[C@@H](Cc1c[nH]c2ccccc12)C(=O)N[C@H](CC(N)=O)C(=O)N[C@@H](CC(=O)O)C(=O)N[C@@H]1C(=O)NCC(=O)N[C@@H](CCCN)C(=O)N[C@@H](CC(=O)O)C(=O)N[C@H](C)C(=O)N[C@@H](CC(=O)O)C(=O)NCC(=O)N[C@H](CO)C(=O)N[C@@H]([C@@H](C)CC(=O)O)C(=O)N[C@@H](CC(=O)c2ccccc2N)C(=O)O[C@@H]1C` , thanks.
Result: 105

Task: Need cell viability of `Cn1cc(/C=C2\C(=O)Nc3cccnc32)c2ccccc21` , thanks.
Result: 106

Task: Need cell viability of `Cc1cc(C(=O)N2CCN(c3cccc(Cl)c3)CC2)n(-c2ccccc2)n1` , thanks.
Result: 103

Task: Need cell viability of `Cc1cc(Nc2nc(N[C@@H](C)c3ccc(F)cc3)c(C#N)cc2F)n[nH]1` , thanks.
Result: 100

Task: Need cell viability of `C[C@@H](NC(=O)c1ncnc(N)c1Cl)c1ncc(C(=O)Nc2cc(C(F)(F)F)c(Cl)cn2)s1` , thanks.
Result: 128

Task: Need cell viability of `ClC1=CC\2=C(OC3=C(C=CC=C3)\N=C2N4CCNCC4)C=C1` , thanks.
Result: 80.1
